Target: T1, human CD19 antigen (human, UniProt P15391 20-291, limits assumed)
T1 sequence (looked up): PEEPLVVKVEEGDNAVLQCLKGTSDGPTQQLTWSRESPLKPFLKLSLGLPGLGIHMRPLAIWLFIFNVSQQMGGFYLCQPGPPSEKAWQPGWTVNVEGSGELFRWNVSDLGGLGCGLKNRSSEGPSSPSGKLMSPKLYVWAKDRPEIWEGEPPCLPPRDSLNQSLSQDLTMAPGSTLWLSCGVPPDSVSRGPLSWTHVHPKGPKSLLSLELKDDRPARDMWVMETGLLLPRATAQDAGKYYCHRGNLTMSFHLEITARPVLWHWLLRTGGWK
Assay: SPR (Biacore), antibody captured via Fc
readout type: pKd
Just the number, please; pKd means minus log10 of the concentration in mol/L.

binder	pKd
humanized CD19 antibody VH7 + VL6 (antibody, V domains shown) VH: QVKLQESGPGLVKPSETLSLTCTVSGVSLPDYGVSWIRQPPGKGLEWLGVIWGSETTYYNSALKSRLTISKDTSKNQFSLKLSSVTAADTAVYYCAKHYYYGGSYAMDYWGQGTLVTVSS VL: DIQMTQSPSSLSASVGDRVTITCRASQDISKYLNWYQQKPGGAVKLLIYHTSRLHSGVPSRFSGSGSGTDYTFTISSLQPEDIATYFCQQGNTLPYTFGGGTKLEIK	8.34
humanized CD19 antibody VH8 + VL6 (antibody, V domains shown) VH: QVKLQESGPGLVKPSETLSLTCTVSGVSLPDYGVSWIRQPPGKGLEWIGVIWGSETTYYNSALKSRVTISKDTSKSQVFLKLSSVTAADTAVYYCAKHYYYGGSYAMDYWGQGTLVTVSS VL: DIQMTQSPSSLSASVGDRVTITCRASQDISKYLNWYQQKPGGAVKLLIYHTSRLHSGVPSRFSGSGSGTDYTFTISSLQPEDIATYFCQQGNTLPYTFGGGTKLEIK	8.49
humanized CD19 antibody VH8 + VL5 (antibody, V domains shown) VH: QVKLQESGPGLVKPSETLSLTCTVSGVSLPDYGVSWIRQPPGKGLEWIGVIWGSETTYYNSALKSRVTISKDTSKSQVFLKLSSVTAADTAVYYCAKHYYYGGSYAMDYWGQGTLVTVSS VL: DIQMTQSPSSLSASVGDRVTISCRASQDISKYLNWYQQKPGKAPKLLIYHTSRLHSGVPSRFSGSGSGTDYTFTISSLQPEDIATYFCQQGNTLPYTFGGGTKLEIK	8.41
humanized CD19 antibody VH2 + VL7 (antibody, V domains shown) VH: QVQLQESGPGLVKPSQTLSLTCTVSGVSLPDYGVSWIRQPPGKGLEWIGVIWGSETTYYNSALKSRVTISKDTSKNQVSLKLSSVTAADTAVYYCAKHYYYGGSYAMDYWGQGTTVTVSS VL: DIQMTQSPSSLSASVGDRVTISCRASQDISKYLNWYQQKPDGTVKLLIYHTSRLHSGVPSRFSGSGSGTDFTFTISSLQPEDIATYFCQQGNTLPYTFGGGTKLEIK	8.19
humanized CD19 antibody VH9 + VL5 (antibody, V domains shown, also called H9L5) VH: QVQLQESGPGLVKPSETLSLTCTVSGVSLPDYGVSWIRQPPGKGLEWLGVIWGSETTYYNSALKSRLTISKDTSKSQVSLKLSSVTAADTAVYYCAKHYYYGGSYAMDYWGQGTLVTVSS VL: DIQMTQSPSSLSASVGDRVTISCRASQDISKYLNWYQQKPGKAPKLLIYHTSRLHSGVPSRFSGSGSGTDYTFTISSLQPEDIATYFCQQGNTLPYTFGGGTKLEIK	8.77
humanized CD19 antibody VH2 + VL6 (antibody, V domains shown) VH: QVQLQESGPGLVKPSQTLSLTCTVSGVSLPDYGVSWIRQPPGKGLEWIGVIWGSETTYYNSALKSRVTISKDTSKNQVSLKLSSVTAADTAVYYCAKHYYYGGSYAMDYWGQGTTVTVSS VL: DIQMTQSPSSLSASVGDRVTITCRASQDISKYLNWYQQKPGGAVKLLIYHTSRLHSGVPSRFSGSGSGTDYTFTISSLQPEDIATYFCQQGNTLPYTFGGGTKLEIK	8.16
humanized CD19 antibody VH4 + VL6 (antibody, V domains shown) VH: QVQLQESGPGLVKPSQTLSLTCTVSGVSLPDYGVSWIRQPPGKGLEWLGVIWGSETTYYNSALKSRLTISKDTSKNQVSLKLSSVTAADTAVYYCAKHYYYGGSYAMDYWGQGTTVTVSS VL: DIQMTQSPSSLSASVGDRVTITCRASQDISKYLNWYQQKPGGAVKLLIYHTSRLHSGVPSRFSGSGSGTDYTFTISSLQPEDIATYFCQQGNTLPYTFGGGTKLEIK	8.03

Q: Which pKd value is on record for humanized CD19 antibody VH10 + VL5 (antibody, V domains shown) VH: QVKLQESGPGLVKPSETLSLTCTVSGVSLPDYGVSWIRQPPGKGLEWLGVIWGSETTYYNSALKSRLTISKDTSKSQVFLKLSSVTAADTAVYYCAKHYYYGGSYAMDYWGQGTLVTVSS VL: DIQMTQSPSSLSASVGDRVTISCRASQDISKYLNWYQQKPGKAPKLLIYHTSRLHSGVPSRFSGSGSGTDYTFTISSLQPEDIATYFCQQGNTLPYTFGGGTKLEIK ?
A: 8.81

Source: patent US20230235052A1
